// provenance: patent US20070197590A1

TARGET: UniProt:P41597
Sequence (P41597 1-360 isoform P41597-2): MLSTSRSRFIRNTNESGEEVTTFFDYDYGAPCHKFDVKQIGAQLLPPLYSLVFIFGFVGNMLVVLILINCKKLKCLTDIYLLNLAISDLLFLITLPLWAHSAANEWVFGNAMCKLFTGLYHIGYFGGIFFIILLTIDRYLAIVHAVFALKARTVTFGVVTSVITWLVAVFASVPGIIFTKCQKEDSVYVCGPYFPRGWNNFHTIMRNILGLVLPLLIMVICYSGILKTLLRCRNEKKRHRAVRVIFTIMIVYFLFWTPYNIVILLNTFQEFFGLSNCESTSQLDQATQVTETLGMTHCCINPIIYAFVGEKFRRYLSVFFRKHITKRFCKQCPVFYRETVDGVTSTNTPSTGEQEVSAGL
MEASUREMENT_NOTES: MCP-1 Receptor Binding Assay in THP-1 Cells
CONDITION_SUMMARY: THP-1 cells, 0.5 nM 125I labeled MCP-1, 2 hours at 30° C.; read-out: Inhibition of MCP-1 Binding IC50
MEASURED_ENDPOINT: IC50 (nM)

[
  {
    "MOLECULE": "O=C(/C=C/c1ccc(F)c(F)c1)N1CCC(O)(C(O)CN2CCC(c3c[nH]c4ccc(F)cc34)CC2)CC1 (stereo not shown)",
    "VALUE": 120
  }
]

I: COc1ccc(C2CCN(CC(O)C3CCN(C(=S)Nc4cccc(OC)c4)CC3)CC2)cc1 (stereo not shown)
II: O=C(/C=C/c1cc(F)cc(F)c1)N1CCC(O)(C(O)CN2CCC(c3c[nH]c4ccc(F)cc34)CC2)CC1 (stereo not shown)
III: O=C(Nc1ccc(F)c(F)c1)N1CCC(O)(C(O)CN2CCC(c3ccc(C(F)(F)F)cc3)CC2)CC1 (stereo not shown)
Query: Endpoint returns the given molecules ordered by ascending IC50. Please list each label once, in the requested order.
Response: II, I, III
(II: 150 nM, I: 500 nM, III: 2800 nM)

I: COc1ccc(C2CCN(CC(O)C3(O)CCN(C(=S)Nc4cc(Cl)cc(Cl)c4)CC3)CC2)cc1 (stereo not shown)
II: COc1ccc(C2CCN(CC(O)C3CCN(C(=S)Nc4cc(Cl)cc(Cl)c4)CC3)CC2)cc1 (stereo not shown)
Query: Lab note: check whether I or II shows the higher recorded IC50. Respond using the label that marks the chosen record.
Response: I
